Origin of the recorded values: paper PMC9601775

- Tested Target: T1, extracellular domain of epidermal growth factor receptor (EGFR), residues 1–618 (Homo sapiens (; human EGFR in …, UniProt P00533)
- T1 construct: Epidermal growth factor receptor (EGFR), extracellular domain, residues 1-618; also called extracellular domain of EGFR; source: Sf9 expression system (baculovirus), purified from the culture supernatant (Ni-NTA, SEC)
- Test Summary: SPR; Biacore 8K; EGFR extracellular domain immobilised on CM5 chip by amine coupling (~1000 RU); VHHs injected in two-fold serial dilutions at 30 μl/min; 25°C; PBS with 0.005% Tween20
- Study Conditions: both partners purified
As shown below, each of these binders has a reported koff value.
I only need the number, in s⁻¹, no unit after it.

{"Binder": "7D12‐Vob Y42F‐L52F (VHH, PDB 7XL1) with the stated changes; IMGT numbering; source: E. coli BL21(DE3), periplasmic fraction, purified (Ni-NTA, SEC)) VHH: EVQLVESGGGLVQPGGSLRLSCAASGRTSRSYGMGWFRQAPGKGREFVAGISWRGDSTGYADSVKGRFTISRDNAKNTLYLQMNSLRPEDTAVYYCAFAAGSAWYGTLYEYDYWGQGTLVTVSS", "Measurement Type": "koff", "Units Symbol": "s⁻¹", "Assay Result": 0.0799}

## Task Name the recorded koff for 7D12‐Vob Y42F (VHH, PDB 7XL1) with the stated change; IMGT numbering; source: E. coli BL21(DE3), periplasmic fraction, purified (Ni-NTA, SEC)) VHH: EVQLVESGGGLVQPGGSLRLSCAASGRTSRSYGMGWFRQAPGKGRELVAGISWRGDSTGYADSVKGRFTISRDNAKNTLYLQMNSLRPEDTAVYYCAFAAGSAWYGTLYEYDYWGQGTLVTVSS .
## Result 0.137
